- protocol.description: yeast display, Sf9 membrane polyspecificity reagent, FACS + sequencing; frameworks hold sequencing errors
measurement.kind: polyreactivity (PSR sort gate)

- QVQLVESGGGLVQAGGSLRLSCAASGFIFGTYAMGWYRQAPGKERELVAAISQSGGRTYYADSVKGRFTISRDNAKNTVYLQMISLKPEDTAVYYCAARHRPTGISTGYDYWGQGTQVTVSS: high polyreactivity
- QVQLVESGGGLVQAGGSLRLSCAASGSILGYYAMGWYRQAPGKERELVAAISSGGSTNYADSVKGRFTISRDNAKNTVYLQMNSLKPEDTAVYYCAAGVTWPYRYVWYDYWGQGTQVTVSS: low polyreactivity
- QVQLVESGGGLVQAGGSLRLSCAASGSIFGYYAMGWYTQAPGKERELVASITRGGSTYYADSVKGRFTISRDNAKNTVYLQMNSLKPEDTAVYYCAAAQWWFRVRGARYYYWGQGTQVTVSS: high polyreactivity
- QVHLVESAAGFVQAGGSLRLSGAASGFILWYYTMGWYRQAPGKERELVAVIDWSGDSTYADSVKGRFTISLDNAKNSVYLQMNSLIPVDTAVYYWNADYFVVWARLEFNYWGQGTQVTVSS: low polyreactivity
- QVQLVESVGGLVQAGGSLRLSCAASGSTFGRNAMGWYRQAPGKERELVAAISSRGGGTYYADSVKGRFTISRDNAKNTVYLQMNSLKPEDTAVYYCAATYGYRRRNHYNYWGQGTQVTVSS: high polyreactivity
- QVQLVESGGGLVQAGGSLRLSCAASGFTFWVYAMGWYRQAPGKEREFVAAISGIGDDTNYADSVKGRFTISRDNAKNTVYLQMNSLKPEDTAVYYCATVALRYYGVTEFDYWGQGTQVTVSS: high polyreactivity
- QVQLVESGGGLVQAGGSLRLSCAASGRIIGHYAMGWYRQAPGKERDLVAAISRGGSTYYADSVKGRFTISRDNAKNTVYLQKTSLKPEDTAVYYCAVRSGRRNYDRPAFGYWGQGTQVTVSS: high polyreactivity
- QVQLVESGGGLVQAGGSLRLSCAASGSIFYSNFMGWYRQAPGKERELVARITDAGSTNYADSVKGRFTISRDNAKNSVYLQMNSLKPEDTAVYYCNARLVIYTYDYWGQGTQVTVSS: low polyreactivity

* * *

- protocol.description: yeast display, Sf9 membrane polyspecificity reagent, FACS + sequencing; frameworks hold sequencing errors
measurement.kind: polyreactivity (PSR sort gate)

- QVQLVESGGGLVQAGGSLRLSCAASGRTFPRYVMGWYRPAPGKERELVASITSSGGSTYYADSVKGRLTISRDNAKNTVYLQMNSLKPEDTAVYYCAAYARPNSGPYAYRLDYWGQGTQVTVSS: high polyreactivity
- QVQLVESAGGLVQAGGSLRLSCAASGRTLTFKTMGWYRQAPGKERELVAGISYSGGSTYYADSVKGRFTISRDNAKNTVYLQMNSLKPEDTAVYYCNAVRVYRRRYDSWGQGTKVTVSS: high polyreactivity

* * *

- protocol.description: yeast display, Sf9 membrane polyspecificity reagent, FACS + sequencing; frameworks hold sequencing errors
measurement.kind: polyreactivity (PSR sort gate)

* QVQLVESGGGLVQAGGSLSLSCAASRFTIGLYAMGWYRQAPGKEREMVAVISSSGGSTYYADSVKGRFTISRDNAKNTVYLQMNSLKPEDTAVYYCAAEWHDYKFDVTYDYWGQGTQVTVSS | low polyreactivity
* QVQLVESGGGLVQAGGSLRLSCAPSGRIFYAYAMGWYRHAPGKERELVAAITIGGNTNYADSVKGRFTSSRDNAKNTVYLQMNSLKPEVTAVYDCNARTYYYPWRGYHVVGSNDLGYWGQGTQVTVST | low polyreactivity
* QVQHVESGGGLDQAGGSLRLSCAASGFIFGWYAMGWYRPAPGKERELVAAITWSGVRTYYADSVKGRFTISRDNAKNTVYLQMHSLKPEDTAVYYCARAGGSVGRGYKDQDGRGDYWGQGTEVTVSS | low polyreactivity
* QVQLVESGGGLVQAGGSLRLSCAASGFIFDSNVMGWYRQAPGKERELVATITNRGGRTYYADSVKGRFTISRDNAKNTVYLQMNSLKPEDTAVYYCNRRWIWTRDRGGYWGQGTQVTVSS | low polyreactivity
* QVQLVESGGGLVQAGGSLRLSCAASGRILAYYAMGWYRQAPGKERELVARISGSGTSTYYADSVKGRFTISRDNAKNTVYLQMNSLKPEDTGVYYCAATYYRGGRSNGPAWWHEYWGQGTQVTVSS | high polyreactivity
* QVQLVESGGGLVQAGGSLRLSCAASGFTFEGYAMGWYRQAPGKERELVASISSGGGTNYADSVKGRFTISRDNAKNTVYLQMNSLKPEDTAVYYCAARAYPYFWTGQKLSRFGYWGQGTQVTVSS | high polyreactivity
* QDQLVESGGGLDQAGGSLRLSCAASGSTFSPYAMGWYRQAPGKERELVAGITSSGGDSYYADSVKGRFTISRDNAKNTVYLQMKSLKPEDTAVYYCAADWWVLGQLCFDYWGQGTQVNVSS | low polyreactivity
* QVQLVESGGGLVQAGGSLRLSCAASGRIFGYNDMGWYRQAPGKERELVAAINRTGGSTYYADSVKGRFTISRDNGKNTVYLQMNSLKPEDTAVYYCNAVARTKWVQTHTDFITDYDYWGQGTQVTVSS | low polyreactivity
* QVQLVESGGGLVQAGGSLRLSCAASGIIFAGNAMGWYRQEPGKERELVAAISSGTTTNYADSVKGRFTISRDNAKNTVYLQMNSLKPEDTAVYYCAADDFPYKSDYWGQGTQVTVSS | low polyreactivity
* QVQLVESGGGLVQAGGSLRLSCAASGSIFRYYAMGWYRQAPGKERELVAAIRVSTGSTSYADSVKGRFTISRDNAKKSVYLQMNSLIPAVTAVYYCNARSRLVIAYRQHNYWGQGTQVTVSS | high polyreactivity
* QVQLVESGGGLVQAGGSLRLSCAASGSTFRNNAMGWYRQAPGKETELVAAISFSSGRTYYADSVKGRFTISRDYAKNTVYLQMNSLKPEDTAVYYCAALQYRRRPYGAVERYDYWGQGTQVTVSS | high polyreactivity
* QVQLVESGGGLVQAGGSLRLSCAASGSIFGWNTMGWYRQAPGKERELVAAITWTGGRTYYADSVKGRFTISRDNAKNTVYLQMNSLKPEDTAVYYCNALRVIRGGIKGDYWGQGTQVTVSS | high polyreactivity
* QVQLVESGVGLVQAGGSLRLSCAASGRTFSRNAMGWYRQAPGKERELVAAISRSGGSTYYADSVKGRFTISRDNAKNTVYLQMNSLKPEDTAVYYCNADVYSTYYNYNYWGQGTQVTVSS | high polyreactivity
* QVQLVESGGGLVQAGGSLRLSCAASGITFYYYAMGWYRQAPGKERELVAAISRSGGRTYYADSVKGRFTISRDNAKNTVYLQMNSLNPEDTAVYYCAAVRYQGGDSSIEYDYWGQGTQVTLSS | high polyreactivity
* QVQLVESGGGLVQAGGSLRLSCAASGLIFSYYAMGWYRQAPGKERELVAAISRGGSTNYADSVKGRFTISRDNAKNTVNLQMNSLKPEDTAVYYFAAGRFAYHDDYWGQGTQVTVSS | high polyreactivity
